Taken from paper PMC7851014.

assay_comment: Ibrutinib and SMT-conjugate pharmacokinetics in human subjects (plasma of patients A and B)
condition_info: human, in vivo, 420 mg, Concentration, patient A, sample ID 19, T 23.3 h, 1xdd 420mg, group trough
assay_endpoint: concentration at 23.3 h (nM)
Response body: numeric value in nM, unit text excluded.

(Q) Any idea what its concentration at 23.3 h is? The molecule is C=CC(=O)N1CCC[C@@H](n2nc(-c3ccc(Oc4ccccc4)cc3)c3c(N)ncnc32)C1 [Ibrutinib, reference compound]
(A) 5.5

---

assay_comment: Ibrutinib and SMT-conjugate pharmacokinetics in human subjects (plasma of patients A and B)
condition_info: human, 560 mg, Concentration, patient B, sample ID 12, T 2.4 h, 1xdd 560mg, group max
# reported concentration at 2.4 h; entries follow
Write it as a number; the unit nM goes unstated.

INSERT INTO assay_data (molecule, assay_endpoint, readout_number) VALUES
  ('Nc1ncnc2c1c(-c1ccc(Oc3ccccc3)cc1)nn2[C@@H]1CCCN(C(=O)CCSC[C@H](NC(=O)CC[C@H](N)C(=O)O)C(=O)NCC(=O)O)C1 [IGSH]', 'concentration at 2.4 h', 0.8);

(Q) Item under review: Nc1ncnc2c1c(-c1ccc(Oc3ccccc3)cc1)nn2[C@@H]1CCCN(C(=O)CCSC[C@H](N)C(=O)O)C1 [ICYS] . Reported concentration at 2.4 h?
(A) 210

(Q) Fill in the blank: the reported concentration at 2.4 h of Nc1ncnc2c1c(-c1ccc(Oc3ccccc3)cc1)nn2[C@@H]1CCCN(C(=O)C(O)CO)C1 (stereo partly shown) [DHI, dihydrodiol-ibrutinib] is ____.
(A) 450

(Q) Can you share its concentration at 2.4 h? I mean this molecule: Nc1ncnc2c1c(-c1ccc(Oc3ccccc3)cc1)nn2[C@@H]1CCCN(C(=O)CCSC[C@H](N)C(=O)NCC(=O)O)C1 [ICGS]
(A) 73.2
